# reported IC50; entries follow
Biological target: recombinant human VAP-1 (Homo sapiens)
Construct: purchased R&D systems
Sequence (Q16853 whole entry): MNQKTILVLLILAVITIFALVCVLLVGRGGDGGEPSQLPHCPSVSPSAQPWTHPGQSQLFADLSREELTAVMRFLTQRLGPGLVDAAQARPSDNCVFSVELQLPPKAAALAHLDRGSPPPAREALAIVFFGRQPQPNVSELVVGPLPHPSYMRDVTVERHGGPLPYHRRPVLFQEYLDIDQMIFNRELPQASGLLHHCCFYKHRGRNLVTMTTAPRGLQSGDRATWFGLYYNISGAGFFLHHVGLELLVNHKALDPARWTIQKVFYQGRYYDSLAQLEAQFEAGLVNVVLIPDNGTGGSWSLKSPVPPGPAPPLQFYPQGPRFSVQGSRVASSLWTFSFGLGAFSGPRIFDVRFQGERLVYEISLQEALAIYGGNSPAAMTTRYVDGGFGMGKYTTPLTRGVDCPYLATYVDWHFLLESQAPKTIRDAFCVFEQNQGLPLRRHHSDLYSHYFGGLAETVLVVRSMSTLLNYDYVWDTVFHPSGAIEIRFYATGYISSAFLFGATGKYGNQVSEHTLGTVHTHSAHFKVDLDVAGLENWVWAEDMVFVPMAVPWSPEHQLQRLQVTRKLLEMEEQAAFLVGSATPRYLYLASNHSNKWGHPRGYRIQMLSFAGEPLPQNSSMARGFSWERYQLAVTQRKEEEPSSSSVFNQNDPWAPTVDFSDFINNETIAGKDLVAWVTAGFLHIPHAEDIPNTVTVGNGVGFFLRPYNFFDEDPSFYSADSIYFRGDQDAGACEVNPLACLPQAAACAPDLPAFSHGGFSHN
Assay: Activity evaluation on recombinant human VAP-1 (Amplex Red/HRP-coupled hydrogen peroxide assay, benzylamine substrate)
Assay type: biochemical
Settings: recombinant human VAP-1; 30 min preincubation at 37° C.; 1 mM benzylamine; read-out: Inhibitory Activity (IC50, nM) human VAP-1
Structures can show the parent of a compound that is named as a salt.
Property Label: IC50 (nM)

[[record]]
molecule = "NCC(Cn1ncn(CCc2cccs2)c1=O)=C(F)F [Example 172, Trifluoroacetate]"
quantitative_result = 13

[[record]]
molecule = "CN(C)c1ncc(-c2ccc(Cn3cnn(CC(CN)=C(F)F)c3=O)s2)cc1F [Example 115, Trifluoroacetate]"
quantitative_result = 0.8

[[record]]
molecule = "NCC(Cn1ncn(Cc2ccc(-c3cc(F)c4[nH]c(=O)ccc4c3)s2)c1=O)=C(F)F [Example 137, Trifluoroacetate]"
quantitative_result = 0.3

[[record]]
molecule = "CN(C)c1ccc(-c2ccc(CCn3cnn(CC(CN)=C(F)F)c3=O)s2)cn1 [Example 176, Trifluoroacetate]"
quantitative_result = 0.5

